MEASUREMENT_NOTES: in vitro
CONDITION_LABEL: dog, MDCK-MDR1, pH 7.4
MEASURE_NAME: Papp A→B at 2 h, 5 μM (×10⁻⁶ cm/s)
Field format: number, assumed ×10⁻⁶ cm/s, no unit text.

COMPOUND | SCALE_UNIT | Papp A→B at 2 h, 5 μM
CCCCNCCNCC(O)c1cc(C(F)(F)F)nc2c(C(F)(F)F)cccc12 (stereo not drawn) [WR318746] | ×10⁻⁶ cm/s | 5.9
CCCCNCC(O)c1cc(C(F)(F)F)nc2c(C(F)(F)F)cccc12 (racemic) [WR177000] | ×10⁻⁶ cm/s | 25.4
CCC(C)CNCC(O)c1cc(C(F)(F)F)nc2c(C(F)(F)F)cccc12 (stereo not drawn) [WR308387] | ×10⁻⁶ cm/s | 18
CC(C)NCC(O)c1cc(C(F)(F)F)nc2c(C(F)(F)F)cccc12 (stereo not drawn) [WR308257] | ×10⁻⁶ cm/s | 25

Give the reported Papp A→B at 2 h, 5 μM for this compound. OC(CNCC12CCC(C1)NC2)c1cc(C(F)(F)F)nc2c(C(F)(F)F)cccc12 (stereo not drawn) [WR319535/581] 2

* * *

TGT: CYP450 2C19 (Homo sapiens)
Sequence (P33261 whole entry): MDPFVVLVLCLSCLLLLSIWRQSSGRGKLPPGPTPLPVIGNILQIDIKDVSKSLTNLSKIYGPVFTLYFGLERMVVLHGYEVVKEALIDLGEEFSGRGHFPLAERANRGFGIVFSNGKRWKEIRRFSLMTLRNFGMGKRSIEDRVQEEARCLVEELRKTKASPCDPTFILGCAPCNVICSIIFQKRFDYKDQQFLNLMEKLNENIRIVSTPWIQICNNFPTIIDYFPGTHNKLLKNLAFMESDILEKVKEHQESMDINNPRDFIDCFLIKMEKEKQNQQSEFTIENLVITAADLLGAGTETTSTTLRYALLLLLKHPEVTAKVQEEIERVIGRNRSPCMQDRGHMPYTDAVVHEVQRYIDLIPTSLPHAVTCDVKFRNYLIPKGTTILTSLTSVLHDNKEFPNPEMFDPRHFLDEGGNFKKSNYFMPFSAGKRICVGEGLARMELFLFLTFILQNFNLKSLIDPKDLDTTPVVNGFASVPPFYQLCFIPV
MEASUREMENT_NOTES: CYP450 inhibition kit (drug-drug interaction), 2C19
pIC50: −log10 of the molar value.
// label = Criterion met if pIC50 is not less than 5, otherwise Criterion not met

Example entries begin here.
COMPOUND | ANSWER_LABEL
CCC(C)CNCC(O)c1cc(C(F)(F)F)nc2c(C(F)(F)F)cccc12 (centres unmarked) | Criterion met
CC1C(NCC(O)c2cc(C(F)(F)F)nc3c(C(F)(F)F)cccc23)CC2CC1C2(C)C (centres unmarked) | Criterion not met
CC(C)NCC(O)c1cc(C(F)(F)F)nc2c(C(F)(F)F)cccc12 (centres unmarked) | Criterion not met
CCC(CC)CNCC(O)c1cc(C(F)(F)F)nc2c(C(F)(F)F)cccc12 (centres unmarked) | Criterion met

Test whether the compound CC(C)CC(C)NCC(O)c1cc(C(F)(F)F)nc2c(C(F)(F)F)cccc12 (centres unmarked) records pIC50 of 5 or higher. Criterion met

* * *

System: P. falciparum strain TM90C2A
MEASUREMENT_NOTES: labeled hypoxanthine susceptibility assay, P. falciparum TM90C2A
Type: cell-based, Plasmodium falciparum
CONDITION_LABEL: Plasmodium falciparum, TM90C2A, read-out: IC90 Pf C2A
Reported IC90 values for a set of compounds
Kindly format the answer as number then unit.

COMPOUND | IC90
CCCCNCC(O)c1cc(C(F)(F)F)nc2c(C(F)(F)F)cccc12 (racemic) [WR177000] | 0.0123 µg/mL
CCCCNCCNCC(O)c1cc(C(F)(F)F)nc2c(C(F)(F)F)cccc12 (stereo not shown) [WR318746] | 0.319 µg/mL
OC(CNC1CCC1)c1cc(C(F)(F)F)nc2c(C(F)(F)F)cccc12 (stereo not shown) [WR308266] | 0.052 µg/mL

Supply IC90 measured with P. falciparum strain TM90C2A for OC(CNCC1CCCN1)c1cc(C(F)(F)F)nc2c(C(F)(F)F)cccc12 (stereo not shown) [WR308621] . 0.198 µg/mL

Supply IC90 measured with P. falciparum strain TM90C2A for CNCC(O)c1cc(C(F)(F)F)nc2c(C(F)(F)F)cccc12 (stereo not shown) [WR308245] . 0.08 µg/mL

Supply IC90 measured with P. falciparum strain TM90C2A for OC(CNCCNCc1ccccc1)c1cc(C(F)(F)F)nc2c(C(F)(F)F)cccc12 (stereo not shown) [WR308396] . 0.048 µg/mL

Supply IC90 measured with P. falciparum strain TM90C2A for CC(C)NCC(O)c1cc(C(F)(F)F)nc2c(C(F)(F)F)cccc12 (stereo not shown) [WR308257] . 0.039 µg/mL

* * *

TGT: UniProt:P05177
Sequence (P05177 whole entry): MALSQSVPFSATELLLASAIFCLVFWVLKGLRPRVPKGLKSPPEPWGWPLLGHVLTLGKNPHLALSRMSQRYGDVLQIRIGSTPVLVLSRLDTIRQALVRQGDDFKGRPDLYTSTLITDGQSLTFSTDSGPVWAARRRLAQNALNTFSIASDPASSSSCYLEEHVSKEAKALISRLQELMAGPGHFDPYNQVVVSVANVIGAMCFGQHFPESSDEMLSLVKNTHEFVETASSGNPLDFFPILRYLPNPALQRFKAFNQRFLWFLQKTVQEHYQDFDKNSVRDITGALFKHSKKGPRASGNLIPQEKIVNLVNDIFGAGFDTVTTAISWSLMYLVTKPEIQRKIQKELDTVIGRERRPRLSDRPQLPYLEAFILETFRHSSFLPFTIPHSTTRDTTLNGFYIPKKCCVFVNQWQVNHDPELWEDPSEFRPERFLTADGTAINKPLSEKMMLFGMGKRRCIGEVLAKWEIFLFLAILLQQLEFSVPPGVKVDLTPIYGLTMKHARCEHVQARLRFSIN
MEASUREMENT_NOTES: CYP450 inhibition kit (drug-drug interaction), 1A2
MEASURE_NAME: IC50 (nM)
Field format: number, assumed nM, no unit text.

Recorded results for 5 molecules are shown here.
MOLECULE | IC50 / nM
CC(C)CC(C)NCC(O)c1cc(C(F)(F)F)nc2c(C(F)(F)F)cccc12 (stereo not shown) [WR308413] | 26000
CCC(CC)CNCC(O)c1cc(C(F)(F)F)nc2c(C(F)(F)F)cccc12 (stereo not shown) [WR308388] | 1200
CNCC(O)c1cc(C(F)(F)F)nc2c(C(F)(F)F)cccc12 (stereo not shown) [WR308245] | 1800
CC(C)NCC(O)c1cc(C(F)(F)F)nc2c(C(F)(F)F)cccc12 (stereo not shown) [WR308257] | 3900
OC(CNC1CCC1)c1cc(C(F)(F)F)nc2c(C(F)(F)F)cccc12 (stereo not shown) [WR308266] | 2400

Supply IC50 measured with UniProt:P05177 for CSCCCNCC(O)c1cc(C(F)(F)F)nc2c(C(F)(F)F)cccc12 (stereo not shown) [WR308278] . 3500

Supply IC50 measured with UniProt:P05177 for OC(CNCCNCc1ccccc1)c1cc(C(F)(F)F)nc2c(C(F)(F)F)cccc12 (stereo not shown) [WR308396] . 5400

Supply IC50 measured with UniProt:P05177 for CCC(C)CNCC(O)c1cc(C(F)(F)F)nc2c(C(F)(F)F)cccc12 (stereo not shown) [WR308387] . 2100

Supply IC50 measured with UniProt:P05177 for C=CCNCC(O)c1cc(C(F)(F)F)nc2c(C(F)(F)F)cccc12 (stereo not shown) [WR308255] . 1500

* * *

Test system: rodent macrophage (RAW) cell line
MEASUREMENT_NOTES: cells
CONDITION_LABEL: Mus musculus, Macrophage, read-out: Macrophage IC50
MEASURE_NAME: IC50 (µM)
Field format: number, assumed µM, no unit text.

Recorded results for 3 molecules are shown here.
MOLECULE | IC50 (µM)
OC(CNCCNCc1ccccc1)c1cc(C(F)(F)F)nc2c(C(F)(F)F)cccc12 (stereo not shown) | 18.1
CSCCCNCC(O)c1cc(C(F)(F)F)nc2c(C(F)(F)F)cccc12 (stereo not shown) | 20.9
CC(C)N(CC(O)c1cc(C(F)(F)F)nc2c(C(F)(F)F)cccc12)C(C)C (racemic) | 81.2

# ---- query molecule ----
Give the reported IC50 for this molecule. C=CCNCC(O)c1cc(C(F)(F)F)nc2c(C(F)(F)F)cccc12 (stereo not shown) 58.4

* * *

TGT: A1 receptor (Homo sapiens)
Construct: Caliper Biosciences (contract screen)
Sequence (P30542 whole entry): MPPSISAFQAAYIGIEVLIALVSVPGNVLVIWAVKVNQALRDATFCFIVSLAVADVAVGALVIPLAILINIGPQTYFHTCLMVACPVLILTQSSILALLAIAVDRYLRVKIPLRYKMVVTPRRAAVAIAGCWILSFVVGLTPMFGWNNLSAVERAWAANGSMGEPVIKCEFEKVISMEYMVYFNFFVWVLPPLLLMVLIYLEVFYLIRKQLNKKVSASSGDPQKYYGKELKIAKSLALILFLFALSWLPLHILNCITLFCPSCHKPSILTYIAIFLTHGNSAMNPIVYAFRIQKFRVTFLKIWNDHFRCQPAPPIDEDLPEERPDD
MEASUREMENT_NOTES: inhibition of the A1 receptor at 200 nM
Type: binding
CONDITION_LABEL: duplicate
// label = true (1) if inhibition at 0.2 µM is not less than 4%, otherwise false (0)

COMPOUND | ANSWER_LABEL
CSCCCNCC(O)c1cc(C(F)(F)F)nc2c(C(F)(F)F)cccc12 (centres unmarked) | true (1)

Test whether the compound CC(C)NCC(O)c1cc(C(F)(F)F)nc2c(C(F)(F)F)cccc12 (centres unmarked) records inhibition at 0.2 µM of 4% or higher. true (1)

Test whether the compound OC(CNCCNCc1ccccc1)c1cc(C(F)(F)F)nc2c(C(F)(F)F)cccc12 (centres unmarked) records inhibition at 0.2 µM of 4% or higher. false (0)

Test whether the compound CNCC(O)c1cc(C(F)(F)F)nc2c(C(F)(F)F)cccc12 (centres unmarked) records inhibition at 0.2 µM of 4% or higher. false (0)

* * *

Reported HL in Microsomes values for a set of molecules
MEASUREMENT_NOTES: metabolic stability in mouse liver microsomes
Assay type: in vitro ADME
CONDITION_LABEL: Figure 3; species of microsomes not given

Recorded results for 4 molecules are shown here.
MOLECULE | MEAS_VALUE
CCCCNCC(O)c1cc(C(F)(F)F)nc2c(C(F)(F)F)cccc12 (racemic) | 37 min
OC(CNCC12CCC(C1)NC2)c1cc(C(F)(F)F)nc2c(C(F)(F)F)cccc12 (centres unmarked) | > 60 min
CCCCNCCNCC(O)c1cc(C(F)(F)F)nc2c(C(F)(F)F)cccc12 (centres unmarked) | > 60 min
OC(CNCCNCc1ccccc1)c1cc(C(F)(F)F)nc2c(C(F)(F)F)cccc12 (centres unmarked) | > 60 min

# ---- query molecule ----
Give the reported HL in Microsomes for this molecule. OC(CNCC1CCCN1)c1cc(C(F)(F)F)nc2c(C(F)(F)F)cccc12 (centres unmarked) > 60 min

* * *

TGT: CYP450 2C9 (Homo sapiens)
Sequence (P11712 whole entry): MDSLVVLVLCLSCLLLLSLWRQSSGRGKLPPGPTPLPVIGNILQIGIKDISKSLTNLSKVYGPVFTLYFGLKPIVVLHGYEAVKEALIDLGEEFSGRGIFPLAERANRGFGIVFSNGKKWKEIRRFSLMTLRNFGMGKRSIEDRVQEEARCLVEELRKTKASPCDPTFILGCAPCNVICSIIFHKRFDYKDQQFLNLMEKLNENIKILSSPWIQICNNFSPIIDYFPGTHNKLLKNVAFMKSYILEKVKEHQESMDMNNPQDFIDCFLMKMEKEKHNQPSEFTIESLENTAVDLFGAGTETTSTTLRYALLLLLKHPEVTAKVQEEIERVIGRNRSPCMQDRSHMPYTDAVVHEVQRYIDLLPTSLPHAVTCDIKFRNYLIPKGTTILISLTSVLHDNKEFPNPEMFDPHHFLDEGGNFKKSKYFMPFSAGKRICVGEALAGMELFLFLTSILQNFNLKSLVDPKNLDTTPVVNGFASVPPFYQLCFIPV
MEASUREMENT_NOTES: CYP450 inhibition kit (drug-drug interaction), 2C9
Procedure: Low IC50s against specific cytochrome P450 isoforms may indicate the potential for a harmful drug interaction to occur in vivo with substrates of that isoform. […] Drug interaction potential was evaluated in vitro using BD Gentest (Franklin Lakes, NJ) CYP450 inhibition kits as recommended by the manufacturer. […] Sample quantification is carried out by LC/MS, and metabolic half-life is calculated by log plots of the total ion chromatograph area remaining.
Reported IC50 values for a set of compounds
Field format: number, assumed µM, no unit text.

COMPOUND | TGT | SCALE_UNIT | IC50
OC(CNC1CCC1)c1cc(C(F)(F)F)nc2c(C(F)(F)F)cccc12 (centres unmarked) | CYP450 2C9 (Homo sapiens) | µM | 12
CC1C(NCC(O)c2cc(C(F)(F)F)nc3c(C(F)(F)F)cccc23)CC2CC1C2(C)C (centres unmarked) | CYP450 2C9 (Homo sapiens) | µM | 16
CSCCCNCC(O)c1cc(C(F)(F)F)nc2c(C(F)(F)F)cccc12 (centres unmarked) | CYP450 2C9 (Homo sapiens) | µM | 6.3

Supply IC50 measured with CYP450 2C9 (Homo sapiens) for C=CCNCC(O)c1cc(C(F)(F)F)nc2c(C(F)(F)F)cccc12 (centres unmarked) . 25
